- Test system: OVCAR-4 ovarian
- TEST: NCI tumour cell line growth inhibition, 48 h; in the data active means GI50 below about 0.43 µM; inactive means the rest
Outcomes: active, inactive

Cc1ccc(-c2cc(C(=O)N3N=C(c4ccc(N)cc4)CC3c3ccc(Cl)cc3)c3ccccc3n2)cc1 (stereo not drawn)
inactive
NC(=O)c1cccc(N2Cc3ccccc3OC3=C2C(=O)c2c(O)ccc(O)c2C3=O)c1
active
CO[C@H](C(=O)[C@@H](O)[C@@H](C)O)[C@@H]1Cc2cc3cc(O[C@H]4C[C@@H](O[C@H]5C[C@@H](O)[C@H](O)C(C)O5)[C@H](O)C(C)(O)O4)cc(O)c3c(O)c2C(=O)[C@H]1O[C@H]1C[C@@H](O[C@H]2C[C@@H](O[C@H]3C[C@@H](OC)[C@H](O)C(C)O3)[C@@H](O)C(C)O2)[C@H](O)C(C)O1 (stereo partly drawn)
inactive

====

- Test system: HL-60(TB) leukemia
- TEST: NCI tumour cell line growth inhibition, 48 h
In this section we review reported TGI values for a set of compounds.
PROPERTY NAME: TGI

O=C(O)CCCn1c(SCc2c(Cl)cccc2Cl)nc2ccsc2c1=O
12 µM
COc1ccc(-c2cc(-c3cc(F)c(Cl)cc3Cl)[nH]n2)cc1OC
55 µM
COc1cc(-c2cc(=O)c3c(OC)c(OC)c(OC)c(OC)c3o2)cc(OC)c1OC
67.5 µM
Cc1cccc(C)c1NC(=O)/C(Cc1nc2ccc([N+](=O)[O-])cc2[nH]c1=O)=N\NC(N)=O
> 100 µM
CCOC(=O)C1C(=O)C(C(=O)OCC)C(c2ccccc2)N(C)C1c1ccccc1 (stereo unspecified)
> 100 µM
COc1ccc(/C=C/C(=O)c2sc(NC(=S)NC(=O)c3ccccc3F)nc2C)cc1OC
> 100 µM
Nc1nc(N)c2cc(CNc3ccc(C(=O)NC(CC(=O)O)C(=O)O)cc3)ccc2n1 (stereo unspecified)
> 100 µM
CCOC(=O)c1cc2c(c3ccsc13)C1(C)CCC3c4ccc(OC)cc4CCC3C1C2 (stereo unspecified)
> 100 µM
CC(C)(C)OC(=O)N1CCCC1=O
> 10 µM
CCCCOC(=O)NC(Nc1ccc(S(N)(=O)=O)cc1)(C(F)(F)F)C(F)(F)F
> 100 µM
COc1ccc(/C=N/C2=C(C#N)C(c3ccccc3)c3c(ccc4ccccc34)O2)cc1 (stereo unspecified)
6 µM
CC(C)NCC(O)c1cc(OCc2ccccc2)c(OCc2ccccc2)cc1NC(=O)CCC(=O)O (stereo unspecified)
15.4 µM
O=c1[nH]nc(Cc2ccccc2)n1/N=C\CC/C=N\n1c(Cc2ccccc2)n[nH]c1=O
> 100 µM
N=C(N)SCCc1ccncc1
> 100 µM
CC(=O)N=C1C=C(NC(C)=O)C(=O)c2ccccc21
6.84 µM
CC1(CO)OC(n2cnc3cncnc32)CC1O (stereo unspecified)
> 100 µM
CNC(=O)N(C1=NCC(C)S1)c1ccc(C)c(C)c1 (stereo unspecified)
4.1 µM
Cc1ccc(S(=O)(=O)NC(=O)Nc2ccc(C(=O)O)c(O)c2)cc1
> 100 µM
CC(C)c1cc(C(F)(F)F)nc(NNc2nc(C(C)C)cc(C(F)(F)F)n2)n1
> 100 µM
C[C@]12CC[C@@H]3c4cc(Br)c(O)c(Br)c4CC[C@H]3[C@@H]1CCC2=O
> 100 µM
COc1cccc(C2C(C(=O)O)=C(CO)Oc3cc4c(cc32)OCO4)c1OC (stereo unspecified)
> 100 µM
